# growth inhibition per entry
experiment: NCI Yeast Anticancer Drug Screen. Data for the bub3 strain (AID 167); conditions: S. cerevisiae bub3 mutant strain, at 50.0 µM, hits give high values
This is part of a sample that, as a whole, favours compounds with a hit. Of some 79,000 tested, about 15% had one in any assay.
# value in %; strip the unit string

Use these answered entries as a reference point.
compound=CC(C)OP(=S)(Oc1ccc(Cl)cc1Cl)OC(C)C value_measured=21.2
compound=O=C(CCl)Oc1ccccc1 value_measured=-59.5

# growth inhibition of COc1cc2c(cc1O)-c1c(OC)c(O)cc3c1C(C2)N(C)CC3 (stereo unspecified) = -24.4

Looking up COc1ccc2c(c1OC(C)=O)C1=CC(=O)CCC13CCNC3C2 (stereo unspecified) , I found its growth inhibition recorded as -28.4

Value of measured growth inhibition for the entry "CCOP(=O)(CC(=O)c1cc2ccccc2[nH]1)OCC" : -8.1

Consider "[C-]#[O+].[C-]#[O+].[C-]#[O+].[C-]#[O+].[Mo].c1ccc([As](CC[As](c2ccccc2)c2ccccc2)c2ccccc2)cc1" . Its measured growth inhibition is 1.15

growth inhibition reading for "O=C1NC(=O)C(=Cc2ccccn2)C(=O)N1" : -6.4

// data source = PubChem BioAssay (NCI)
